test: in vitro; settings: human
experimentalReadout: CC50 (µM)
Entry rule: numbers only, all in µM.

Recorded CC50, per entry:
| compound | CC50 / µM |
| --- | --- |
| Cc1ccc(-c2cs/c(=N/N=C3\C[C@H]4CC[C@]3(C)C4(C)C)n2-c2ccccc2)cc1 | 135 |
| CCN1C(=O)CS/C1=N/N=C1/C[C@@H]2CC[C@@]1(C)C2(C)C | 170 |
| C=CCN1C(=O)C(C)(C)S/C1=N/N=C1/C[C@H]2CC[C@]1(C)C2(C)C | 960 |

Form field CC50, entry CN[C@H]1CC[C@@H](c2ccc(Cl)c(Cl)c2)c2ccccc21 [Sertraline, reference compound] : 408

// CC50 lookup, compound = `C=CCNC(=S)N/N=C1\C[C@H]2CC[C@]1(C)C2(C)C` , result: 128

// CC50 lookup, compound = `CC1(C)[C@@H]2CC[C@@]1(C)/C(=N/N=c1/scc(-c3ccc(Cl)cc3)n1-c1ccccc1)C2` , result: 872

* * *

Readings of CC50 for the listed compounds
assay: in vitro; conditions: African green monkey
Could you write the number and then its unit?

| compound | CC50 |
| --- | --- |
| CC1(C)[C@@H]2CC[C@@]1(C)/C(=N/N=c1/scc(-c3ccccc3)n1-c1ccccc1)C2 | 122 µM |
| CCn1c(-c2ccc(C)cc2)cs/c1=N/N=C1\C[C@H]2CC[C@]1(C)C2(C)C | 15 µM |
| Nc1ccn(C[C@@H](CO)OCP(=O)(O)O)c(=O)n1 [Cidofovir, reference compound] | 475 µM |
| Cc1ccc(-c2cs/c(=N/N=C3\C[C@H]4CC[C@]3(C)C4(C)C)n2-c2ccccc2)cc1 | 98 µM |
| CN1C(=O)CS/C1=N/N=C1/C[C@@H]2CC[C@@]1(C)C2(C)C | 250 µM |

Recorded CC50 (compound `CCN1C(=O)CS/C1=N/N=C1/C[C@@H]2CC[C@@]1(C)C2(C)C` ): 220 µM

Data point: `C=CCNC(=S)N/N=C1\C[C@@H]2CC[C@@]1(C)C2(C)C` ; CC50 = 35 µM

Noted for `CN1C(=O)C(C)(C)S/C1=N/N=C1/C[C@H]2CC[C@]1(C)C2(C)C` : its CC50 reads 310 µM

* * *

tested on: Marburg pseudovirus (GP MARV)
Field: label. Allowed values: 1 (SI (CC50/IC50) < 3) or -1 (SI (CC50/IC50) >= 3).

Below are worked cases with known answers.
| compound | classAssignment |
| --- | --- |
| CCn1c(-c2ccccc2)cs/c1=N/N=C1\C[C@H]2CC[C@]1(C)C2(C)C [Compound 8c] | 1 |
| Cn1c(-c2ccc(Cl)cc2)cs/c1=N/N=C1\C[C@H]2CC[C@]1(C)C2(C)C [Compound 5d] | -1 |
| CC1(C)[C@@H]2CC[C@@]1(C)/C(=N/NC(=S)Nc1ccccc1)C2 [Compound 2a] | 1 |
| C=CCN1C(=O)C(C)(C)S/C1=N/N=C1/C[C@H]2CC[C@]1(C)C2(C)C [Compound 4b] | -1 |
| CCN1C(=O)CS/C1=N/N=C1/C[C@H]2CC[C@]1(C)C2(C)C [Compound 3c] | 1 |

Attention now turns to another entry.
Problem: Could you please tell me whether SI (CC50/IC50) recorded for C=CCNC(=S)N/N=C1\C[C@@H]2CC[C@@]1(C)C2(C)C [2′b] is less than 3?
Solution: -1

* * *

experiment: in vitro; conditions: human
Here the recorded CC50 is given for each entry.
Please give a number only; it is taken to be in µM.

Solved entries:
| compound | experimentalReadout | measurementUnit | measured |
| --- | --- | --- | --- |
| COc1ccc(-c2cs/c(=N/N=C3\C[C@H]4CC[C@]3(C)C4(C)C)n2-c2ccccc2)cc1 | CC50 | µM | 973 |
| Cn1c(-c2ccc(Cl)cc2)cs/c1=N/N=C1\C[C@H]2CC[C@]1(C)C2(C)C | CC50 | µM | 107 |
| CCn1c(-c2ccc(OC)cc2)cs/c1=N/N=C1\C[C@H]2CC[C@]1(C)C2(C)C | CC50 | µM | 117 |
| CC12CCC(CC1=NN=C1SCC(=O)N1c1ccccc1)C2(C)C (stereo not drawn) | CC50 | µM | 1260 |
| CNC(=S)N/N=C1\C[C@@H]2CC[C@@]1(C)C2(C)C | CC50 | µM | 66.9 |

Here's the next entry for you.
# CC50 of `CNC(=S)N/N=C1\C[C@H]2CC[C@]1(C)C2(C)C` = 62.8

* * *

The molecules below have reported CC50 for Vero cells.

These recorded examples may help you get a feel for the data.
| smilesCode | targetOrSystem | CC50 |
| --- | --- | --- |
| CNC(=S)N/N=C1\C[C@H]2CC[C@]1(C)C2(C)C | Vero cells | least cytotoxicity |
| CC1(C)[C@@H]2CC[C@@]1(C)/C(=N/NC(=S)Nc1ccccc1)C2 | Vero cells | quite toxic |
| CNC(=S)N/N=C1\C[C@@H]2CC[C@@]1(C)C2(C)C | Vero cells | least cytotoxicity |
| CC1(C)[C@H]2CC[C@]1(C)/C(=N/NC(=S)Nc1ccccc1)C2 | Vero cells | quite toxic |

Now, please, on to the next molecule.
Field CC50 (Vero cells), entry `C=CCNC(=S)N/N=C1\C[C@H]2CC[C@]1(C)C2(C)C` : least cytotoxicity

* * *

Recorded CC50, one value per entry.
experiment: in vitro; details: African green monkey
Form entry: value (µM) — number only.

Worked set:
| compound | CC50 (µM) |
| --- | --- |
| CNC(=S)N/N=C1\C[C@@H]2CC[C@@]1(C)C2(C)C [2′d] | 130 |
| CC1(C)S/C(=N/N=C2/C[C@H]3CC[C@]2(C)C3(C)C)N(c2ccccc2)C1=O [Compound 4a] | 270 |

Here is the next item to consider.
Reported CC50 for C=CCNC(=S)N/N=C1\C[C@H]2CC[C@]1(C)C2(C)C [Compound 2b] was 200

* * *

Measured SI (CC50/IC50) on vaccinia virus (strain Copenhagen) follows.
Form rule: numeric answer, no unit written next to it.

Here's what some known entries look like.
| compound | targetOrSystem | SI (CC50/IC50) |
| --- | --- | --- |
| CC1(C)[C@@H]2CC[C@@]1(C)/C(=N/N=c1/scc(-c3ccccc3)n1-c1ccccc1)C2 [Compound 8a] | vaccinia virus (strain Copenhagen) | 7 |
| Cn1c(-c2ccccc2)cs/c1=N/N=C1\C[C@H]2CC[C@]1(C)C2(C)C [Compound 8d] | vaccinia virus (strain Copenhagen) | 9 |
| Nc1ccn(C[C@@H](CO)OCP(=O)(O)O)c(=O)n1 [Cidofovir, reference compound] | vaccinia virus (strain Copenhagen) | 12 |
| C=CCn1c(-c2ccc(Cl)cc2)cs/c1=N/N=C1\C[C@H]2CC[C@]1(C)C2(C)C [Compound 5b] | vaccinia virus (strain Copenhagen) | 8 |
| CC1(C)S/C(=N/N=C2/C[C@H]3CC[C@]2(C)C3(C)C)N(c2ccccc2)C1=O [Compound 4a] | vaccinia virus (strain Copenhagen) | 8 |
| CCn1c(-c2ccc(Cl)cc2)cs/c1=N/N=C1\C[C@H]2CC[C@]1(C)C2(C)C [Compound 5c] | vaccinia virus (strain Copenhagen) | 6 |

Reported SI (CC50/IC50) ( CCN1C(=O)CS/C1=N/N=C1/C[C@@H]2CC[C@@]1(C)C2(C)C [3′c] ) = 4

Looking up CC1(C)[C@H]2CC[C@]1(C)/C(=N\N=C1\SCC(=O)N1c1ccccc1)C2 [3′a] , I see its SI (CC50/IC50) listed as 4

Entry CNC(=S)N/N=C1\C[C@@H]2CC[C@@]1(C)C2(C)C [2′d] ; SI (CC50/IC50) = 5

Form: compound = CNC(=S)N/N=C1\C[C@H]2CC[C@]1(C)C2(C)C [Compound 2d] ; SI (CC50/IC50) = 2

The reported SI (CC50/IC50) of the compound C=CCN1C(=O)CS/C1=N/N=C1/C[C@@H]2CC[C@@]1(C)C2(C)C [3′b] was 2

* * *

Here, each record is paired with measured log10(CC50) data.
test: in vitro; details: African green monkey
Note the log scale: values are log10 of CC50 expressed in µM.

Known results for compounds:
| compound | log10(CC50) |
| --- | --- |
| C=CCn1c(-c2ccc(C)cc2)cs/c1=N/N=C1\C[C@H]2CC[C@]1(C)C2(C)C | 1.08 |
| Cc1ccc(-c2cs/c(=N/N=C3\C[C@H]4CC[C@]3(C)C4(C)C)n2C)cc1 | 1.23 |
| CCn1c(-c2ccc(Cl)cc2)cs/c1=N/N=C1\C[C@H]2CC[C@]1(C)C2(C)C | 1.85 |

--- query ---
`CNC(=S)N/N=C1\C[C@H]2CC[C@]1(C)C2(C)C` has a reported log10(CC50) of 2.18
